tested on: HEK293; assay: Displacement of [125I]-CCL2 from HCMV US28 expressed in HEK293 cells at 10 uM after 3 hrs by gamma counting method relative to control; assay type: cell-based; settings: Human betaherpesvirus 5
Listed compounds paired with reported Efficacy
Note: unit % is implicit; provide only the numeric part.

Inquiry: Quick one: Efficacy for `COC(=O)c1ccc(NC(=O)CN2CCC(Cn3c(C)nc4ccccc43)CC2)cc1` ?
Reply text: 32

Inquiry: Quick one: Efficacy for `O=C(CN1CCC(Cn2cnc3ccccc32)CC1)Nc1nc2ccc(F)cc2s1` ?
Reply text: 20

Inquiry: Quick one: Efficacy for `NC(=O)c1ccc(NC(=O)CN2CCC(Cn3cnc4ccccc43)CC2)cc1` ?
Reply text: -4

Inquiry: Quick one: Efficacy for `Cc1nc2ccccc2n1CC1CCN(CC(=O)Nc2cc(C(F)(F)F)ccc2Cl)CC1` ?
Reply text: 24

Inquiry: Quick one: Efficacy for `Cc1nc2ccccc2n1CC1CCN(Cc2ccc(F)c(F)c2)CC1` ?
Reply text: 46

Inquiry: Quick one: Efficacy for `Cc1nc2ccccc2n1CC1CCN(CC(=O)Nc2ccc(OC(F)(F)F)cc2)CC1` ?
Reply text: 78

Inquiry: Quick one: Efficacy for `O=C(CN1CCC(Cn2cnc3ccccc32)CC1)Nc1ccccn1` ?
Reply text: 10

---

assay: Modulation of basal activity of HCMV US28 expressed in tetracyclin-induced HEK293 cells assessed as change in inositol phosphate accumulation using [3H]-myo-inositol by scintillation proximity assay; type: cell-based; conditions: Human betaherpesvirus 5, HEK293; read-out: pEC50 (converted)
Listed molecules paired with reported log10 of EC50
Hello, just confirming the data are log10 of EC50 with units of µM.

Please review the entries below; each comes with its answer.
# Molecule, Recorded Measurement
measured = [
    ("Cc1nc2ccccc2n1CC1CCN(CC(=O)Nc2ccc(F)cc2F)CC1", 0.00),
    ("COc1ccc(-c2csc(NC(=O)CN3CCN(Cc4ccc5c(c4)OCO5)CC3)n2)cc1", 0.30),
    ("NC(=O)c1c(NC(=O)CN2CCN(Cc3ccc4c(c3)OCO4)CC2)sc2c1CCCC2", -1.00),
]

With those in mind, consider the next molecule.
Inquiry: Quick one: log10 of EC50 for CC(C(=O)Nc1sccc1C(N)=O)N1CCN(Cc2nc3ccccc3s2)CC1 (stereo not given) ?
Reply text: 0.60

---

Listed compounds paired with reported Efficacy
test system: HEK293; test: Displacement of [125I]-CCL2 from HCMV US28 expressed in HEK293 cells at 10 uM after 3 hrs by gamma counting method relative to control; assay type: cell-based; settings: Human betaherpesvirus 5
Note: unit % is implicit; provide only the numeric part.

Please review the entries below; each comes with its answer.
# Compound, Assay System, Unit Descriptor, Efficacy
data = [
    ("Cc1cc2ncn(CC3CCN(CC(=O)NCc4ccc(F)cc4)CC3)c2cc1C", "HEK293", "%", 25),
    ("Cc1ccc(NC(=O)CN2CCC(Cn3cnc4ccccc43)CC2)cc1Cl", "HEK293", "%", 71),
    ("Cc1nc2ccccc2n1CC1CCN(CC(=O)Nc2cccnc2)CC1", "HEK293", "%", -2),
    ("Cc1nc2ccccc2n1CC1CCN(CC(=O)Nc2ccc(F)cc2F)CC1", "HEK293", "%", 10),
    ("CNC(=O)NC(=O)CN1CCC(Cn2c(C)nc3ccccc32)CC1", "HEK293", "%", 0),
    ("Cn1c(CN2CCN(CC(=O)Nc3ccc(F)cc3F)CC2)nc2ccccc21", "HEK293", "%", 6),
    ("N#CC(CCCN1CCC(O)(c2ccc(Cl)cc2)CC1)(c1ccccc1)c1ccccc1 [BERLEX COMPOUND]", "HEK293", "%", 60),
    ("O=C(CN1CCC(Cn2cnc3ccccc32)CC1)Nc1nccs1", "HEK293", "%", 5),
]

Inquiry: Quick one: Efficacy for `Cn1c(CN2CCN(CC(=O)Nc3ccc(OC(F)(F)F)cc3)CC2)nc2ccccc21` ?
Reply text: 7

Inquiry: Quick one: Efficacy for `O=C(CN1CCN(Cc2nc3ccccc3[nH]2)CC1)Nc1ccc(F)cc1F` ?
Reply text: -7
